- TARGET OR SYSTEM: HEK cells stably transfected with tetracycline inducible hNR1 and hNR2A (Homo sapiens, UniProt Q05586+Q12879)
- Construct: expressed in transfected cells; host or cells: HEK cells, stably transfected, tetracycline/doxycycline inducible
- Sequence (Q12879 23-1464, other chains not shown): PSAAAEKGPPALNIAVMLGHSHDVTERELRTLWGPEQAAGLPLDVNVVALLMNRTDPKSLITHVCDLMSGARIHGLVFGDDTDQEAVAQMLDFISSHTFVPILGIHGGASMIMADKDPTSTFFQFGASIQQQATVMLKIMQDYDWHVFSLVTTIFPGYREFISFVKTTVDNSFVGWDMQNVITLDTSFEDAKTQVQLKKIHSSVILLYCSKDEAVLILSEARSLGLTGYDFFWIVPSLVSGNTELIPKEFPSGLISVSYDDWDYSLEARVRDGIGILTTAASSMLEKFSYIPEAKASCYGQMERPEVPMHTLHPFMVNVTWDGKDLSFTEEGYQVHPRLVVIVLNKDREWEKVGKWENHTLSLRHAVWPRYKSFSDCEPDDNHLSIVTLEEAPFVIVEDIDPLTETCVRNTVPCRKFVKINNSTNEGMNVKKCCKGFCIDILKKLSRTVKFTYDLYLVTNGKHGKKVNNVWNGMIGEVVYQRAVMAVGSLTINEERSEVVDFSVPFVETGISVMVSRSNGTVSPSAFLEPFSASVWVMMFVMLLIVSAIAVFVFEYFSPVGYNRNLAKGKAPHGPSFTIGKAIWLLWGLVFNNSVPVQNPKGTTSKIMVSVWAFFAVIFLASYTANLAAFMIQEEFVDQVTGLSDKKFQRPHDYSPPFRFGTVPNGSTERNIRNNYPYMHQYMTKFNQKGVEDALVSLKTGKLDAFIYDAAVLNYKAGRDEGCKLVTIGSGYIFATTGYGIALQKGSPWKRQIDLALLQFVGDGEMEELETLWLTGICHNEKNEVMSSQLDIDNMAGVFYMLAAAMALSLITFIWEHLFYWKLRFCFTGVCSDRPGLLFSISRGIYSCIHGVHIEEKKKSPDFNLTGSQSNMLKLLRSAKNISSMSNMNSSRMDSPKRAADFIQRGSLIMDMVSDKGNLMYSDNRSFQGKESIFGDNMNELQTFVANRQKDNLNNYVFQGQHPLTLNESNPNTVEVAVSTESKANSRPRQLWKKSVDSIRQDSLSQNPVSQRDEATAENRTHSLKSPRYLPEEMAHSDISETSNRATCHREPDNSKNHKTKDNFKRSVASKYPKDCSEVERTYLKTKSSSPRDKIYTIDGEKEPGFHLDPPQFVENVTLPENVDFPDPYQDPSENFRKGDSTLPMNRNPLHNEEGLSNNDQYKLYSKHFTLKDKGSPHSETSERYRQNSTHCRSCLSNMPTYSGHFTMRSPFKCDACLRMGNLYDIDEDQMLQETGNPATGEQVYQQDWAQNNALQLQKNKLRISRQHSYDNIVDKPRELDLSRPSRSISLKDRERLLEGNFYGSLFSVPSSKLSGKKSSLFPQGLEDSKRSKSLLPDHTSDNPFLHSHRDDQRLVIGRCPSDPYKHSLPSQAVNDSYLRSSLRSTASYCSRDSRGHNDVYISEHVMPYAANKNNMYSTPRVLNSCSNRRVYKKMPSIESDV
- TEST: Assay 1: Cell-Based Assay, cytosolic calcium response to positive allosteric modulators (with 30 μM glycine and 300 nM L-glutamate, EC30)
- CONDITION SET: Table 3; cytosolic calcium response, with 30 μM glycine and 300 nM L-glutamate (EC30); — = no plateau was reached
METRIC NAME: EC50 (µM)

Worked cases, answers included:
CCNC(=O)c1c(C#N)sc2nc(Cc3cccc(C(F)(F)F)c3F)cc(=O)n12 [compound 105] = 3.9
Cc1sc2nc(Cn3nc(C(F)(F)F)cc3Cl)cc(=O)n2c1/C=C/C#N [compound 262] = 1.11
Cc1sc2nc(Cn3nc(C(F)(F)F)cc3Cl)cc(=O)n2c1C(=O)C1CC1 [compound 224] = 0.366
Cc1sc2nc(Oc3cccc(C#N)c3F)cc(=O)n2c1C1CC1C(F)(F)F (centres unmarked) [compound 77] = 0.271
Cc1sc2nc(Cc3cccc(C(F)(F)F)c3F)cc(=O)n2c1-c1ncn[nH]1 [compound 240] = 37.1
O=c1cc(Cn2nc(C(F)(F)F)cc2C2CC2)nc2sc3c(n12)C(CO)CC3 (centres unmarked) [compound 95] = 9.2
CCNC(=O)c1c(C)sc2nc(Cn3nc(Cl)cc3C)cc(=O)n12 [compound 21] = 7.88
Cc1sc2nc(Cn3nc(C(F)(F)F)cc3Cl)cc(=O)n2c1-c1ncco1 [compound 158] = 1.42

[P] Cc1sc2nc(Cn3nc(C(F)(F)F)cc3Cl)cc(=O)n2c1-c1cccnc1 [compound 134]
[Q] O=c1cc(Cn2nc(C(F)(F)F)cc2Cl)nc2sc(C(F)(F)F)c(-c3cncc(Cl)c3)n12 [compound 255]
In: Higher EC50 between P and Q ? Pick one; state its label.
Out: Q

[P] Cc1sc2nc(Cn3nc(C(F)(F)F)cc3Cl)cc(=O)n2c1-c1ncc[nH]1 [compound 170]
[Q] CCNC(=O)c1c(C(F)(F)F)sc2nc(Cc3cccc(Cl)c3F)cc(=O)n12 [compound 50]
[R] Cc1sc2nc(Cn3nc(Cl)cc3C(F)(F)F)cc(=O)n2c1-c1ccn[nH]1 [compound 133]
[S] CCNC(=O)c1c(C)sc2nc(CN(CC)c3ccc(F)cc3)cc(=O)n12 [compound 82]
[T] CNC(=O)c1c(C(F)(F)F)sc2nc(Cn3nc(C4CC4)cc3C(F)(F)F)cc(=O)n12 [compound 54]
In: # sort list by recorded EC50, greatest to least Your answer should be the labels, listed in the requested order.
Out: R, Q, T, P, S

[a] Cc1sc2nc(Cn3nc(Cl)cc3C(F)(F)F)cc(=O)n2c1C#N [compound 115]
[b] Cc1sc2nc(Cn3nc(C(F)(F)F)cc3Cl)cc(=O)n2c1C(=O)NCC(F)(F)F [compound 65]
In: // task: argmin of EC50 over [ a , b ] Choose, then provide that item's label.
Out: b

----------
- TARGET OR SYSTEM: HEK cells stably transfected with tetracycline inducible hNR1 and hNR2A (Homo sapiens, UniProt Q05586+Q12879)
- Construct: expressed in transfected cells; host or cells: HEK cells, stably transfected, tetracycline/doxycycline inducible
- TEST: Assay 1: Cell-Based Assay, cytosolic calcium response to positive allosteric modulators (with 30 μM glycine and 300 nM L-glutamate, EC30)
- CONDITION SET: Table 2; cytosolic calcium response, with 30 μM glycine and 300 nM L-glutamate (EC30); — = no plateau was reached
pEC50: −log10 of the molar value.
METRIC NAME: pEC50

Here's what some known entries look like.
CCN(Cc1cc(=O)n2c3c(sc2n1)CCC3CO)c1ccc(F)cc1 (single isomer, unassigned) [Example 8.4] = 6.24
CNC(=O)c1c(C)sc2nc(Cc3cc(Cl)ccc3Cl)cc(=O)n12 [Example 21.48] = 5.09
CCN(Cc1cc(=O)n2c(-c3ccncc3)c(C)sc2n1)c1ccc(F)cc1 [Example 5.32] = 5.37

[A] Cc1sc2nc(Cn3nc(C(F)(F)F)cc3C(F)(F)F)cc(=O)n2c1[C@@H]1C[C@H]1CO (relative stereo) [Example 15.2]
[B] CCNC(=O)c1c(C)sc2nc(Cc3cccc(C4CC4)c3F)cc(=O)n12 [Example 21.25]
In: For the pair A and B , which entry has the numerically smaller recorded pEC50? // caller expects the label of the chosen entry
Out: B
(B: 5.41, A: 6.00)

----------
- TARGET OR SYSTEM: HEK cells stably transfected with tetracycline inducible hNR1 and hNR2A (Homo sapiens, UniProt Q05586+Q12879)
- Construct: expressed in transfected cells; host or cells: HEK cells, stably transfected, tetracycline/doxycycline inducible
- TEST: Assay 1: Cell-Based Assay, cytosolic calcium response to positive allosteric modulators (with 30 μM glycine and 300 nM L-glutamate, EC30)
- CONDITION SET: Table 2; responses scaled relative to 100 μM L-glutamate maximal response (100%) and 0 μM L-glutamate (0%)
METRIC NAME: Max % (%)

CCNC(=O)c1csc2nc(COc3ccc(F)cc3)cc(=O)n12 = 44.8
Cc1sc2nc(Cn3nc(Cl)cc3C)cc(=O)n2c1[C@@H]1C[C@H]1CO (relative stereo) = 144
CNC(=O)c1c(C(F)(F)F)sc2nc(COc3ccc(F)cc3)cc(=O)n12 = 42.7
Cc1sc2nc(CN3c4ccc(F)cc4CC3C)cc(=O)n2c1-c1ccco1 (centres unmarked) = 155
CCc1cc(C(F)(F)F)nn1Cc1cc(=O)n2c(C3CC3CO)c(C)sc2n1 (centres unmarked) = 144

[a] CCNC(=O)c1c(C)sc2nc(Cc3cccc(NS(C)(=O)=O)c3)cc(=O)n12
[b] CCN(Cc1cc(=O)n2c(-c3ccncc3)c(C)sc2n1)c1ccc(F)cc1
[c] CNC(=O)c1c(C)sc2nc(Cc3ccc(Cl)cc3F)cc(=O)n12
In: List these items ordered by Max %, big to small. Give your ranking as a list of the labels in the requested order.
Out: b, a, c

----------
- TARGET OR SYSTEM: HEK cells stably transfected with tetracycline inducible hNR1 and hNR2A (Homo sapiens, UniProt Q05586+Q12879)
- Construct: expressed in transfected cells; host or cells: HEK cells, stably transfected, tetracycline/doxycycline inducible
- TEST: Assay 1: Cell-Based Assay, cytosolic calcium response to positive allosteric modulators (with 30 μM glycine and 300 nM L-glutamate, EC30)
- CONDITION SET: Table 3; cytosolic calcium response, with 30 μM glycine and 300 nM L-glutamate (EC30); — = no plateau was reached
METRIC NAME: EC50 (µM)

Answered cases to consult:
CCN(Cc1cc(=O)n2c(/C=C/C#N)c(C)sc2n1)c1ccc(F)cc1 [compound 279] = 1.82
CNC(=O)c1c(C(F)(F)F)sc2nc(Cn3nc(C(F)(F)F)cc3C)cc(=O)n12 [compound 61] = 8.06

[1] CCNC(=O)c1c(C)sc2nc(CN(CC)c3ccc(F)cn3)cc(=O)n12 [compound 147]
[2] N#CC1CC1c1c(C(F)(F)F)sc2nc(Cc3cccc(C(F)(F)F)c3F)cc(=O)n12 (stereo not shown) [compound 162]
In: Between 1 and 2 , whose recorded EC50 is greater? Your answer should be the label of the entry you select.
Out: 1
(1: 1.98 µM, 2: 0.199 µM)

----------
- TARGET OR SYSTEM: HEK cells stably transfected with tetracycline inducible hNR1 and hNR2A (Homo sapiens, UniProt Q05586+Q12879)
- Construct: expressed in transfected cells; host or cells: HEK cells, stably transfected, tetracycline/doxycycline inducible
- TEST: Assay 1: Cell-Based Assay, cytosolic calcium response to positive allosteric modulators (with 30 μM glycine and 300 nM L-glutamate, EC30)
- CONDITION SET: Table 2; responses scaled relative to 100 μM L-glutamate maximal response (100%) and 0 μM L-glutamate (0%)
METRIC NAME: Max % (%)

CCNC(=O)c1c(C)sc2nc(Cc3cc(C#N)ccc3C3CC3)cc(=O)n12 = 92.4
CCN(Cc1cc(=O)n2c(C(C)=O)c(C)sc2n1)c1ccc(F)cc1 = 177
Cc1sc2nc(Cn3nc(C4CC4)c(F)c3C(F)(F)F)cc(=O)n2c1C1CC1CO (centres unmarked) = 117
CCN(Cc1cc(=O)n2c(CS(C)(=O)=O)c(C)sc2n1)c1ccc(F)cc1 = 156

[I] Cc1sc2nc(Cn3nc(C4CC4)cc3C)cc(=O)n2c1C1CC1CO (single isomer, unassigned)
[II] CCNC(=O)c1c(C)sc2nc(Cc3ccccc3F)cc(=O)n12
[III] CCN(Cc1cc(=O)n2c(-c3ccc(N)nc3)c(C)sc2n1)c1ccc(F)cc1
[IV] CCN(Cc1cc(=O)n2c([C@@H]3C[C@H]3CO)csc2n1)c1ccc(F)cc1 (relative stereo)
In: // ascending sort on recorded Max % Provide the ranking by listing each label in its place in the requested order.
Out: II, III, I, IV

[A] Cc1sc2nc(COc3ccc(F)cc3)cc(=O)n2c1[C@@H]1C[C@H]1C#N (single isomer, unassigned) [Example 4.22]
[B] Cc1sc2nc(CN3c4ccccc4CC3C)cc(=O)n2c1C#N (centres unmarked)
[C] CC#Cc1c(C)sc2nc(CN(CC)c3ccc(F)cc3)cc(=O)n12
In: Hey, quick one: sort these by Max %, largest value first please. Enter labels, ranked according to the request.
Out: B, A, C
